Hey, just so you know, these numbers are from patent US20200123260A1.

- measuredTarget: T1, rhTrkB-ECD (R&D #397-TR/CF) (human, UniProt Q16620 32-430)
- T1 construct: extracellular domain; Bought protein; also called human TrkB-extracellular domain protein; human TrkB ectodomain protein
- T1 sequence (Q16620 32-430): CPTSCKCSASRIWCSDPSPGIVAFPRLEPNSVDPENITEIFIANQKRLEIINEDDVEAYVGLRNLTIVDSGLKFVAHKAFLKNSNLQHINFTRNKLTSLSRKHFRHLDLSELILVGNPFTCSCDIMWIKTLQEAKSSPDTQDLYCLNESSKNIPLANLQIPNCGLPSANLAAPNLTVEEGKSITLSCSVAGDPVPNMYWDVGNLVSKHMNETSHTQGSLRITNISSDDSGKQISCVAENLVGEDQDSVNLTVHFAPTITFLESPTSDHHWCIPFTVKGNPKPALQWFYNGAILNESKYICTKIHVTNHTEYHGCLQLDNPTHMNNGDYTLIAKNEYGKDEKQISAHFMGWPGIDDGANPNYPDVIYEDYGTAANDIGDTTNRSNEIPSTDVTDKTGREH
- assay: competition ELISA on coated rhTrkB-ECD; competitor biotinylated chimeric TOA-1 at 25 ng/ml
measuredQuantity: IC50 (nM)

>  <binder>
TOA-1 variant VH human v1.1 / VL human v1.0 (antibody, V domains shown, Human IgG; constant regions not restated; also called hu v1.1 / hu v1.0) VH: EVQLVESGGGLVQPGGSLRLSCATSGYSFTAYFMNWVRQAPGKGLEWVARINPNNGDTFYTQKFKGRFTISVDNAKNSAYLQMNSLRAEDTAVYYCARRDYFGAMDYWGQGTLVTVSS VL: DIQMTQSPSSLSASVGDRVTITCRASQTISNNLHWYQQKPGKAPKLLIYSASLAISGVPSRFSGSGSGTDFTLTISSLQPEDFATYYCQQSNSWPNTFGGGTKVEIK

>  <measuredQuantity>
IC50

>  <result>
13.6

$$$$
>  <binder>
TOA-1 variant VH mouse / VL human v1.0 (antibody, V domains shown, Human IgG from COS-1 conditioned medium; constant regions not restated; also called mu / hu v1.0) VH: EVQLQQSGPELVKPGASMKISCKTSGYSFTAYFMNWVKQSHGKSLEWIGRINPNNGDTFYTQKFKGKATLTVDKSSNTAHMELLSLTSEDSAIYYCGRRDYFGAMDYWGQGTSVTVSS VL: DIQMTQSPSSLSASVGDRVTITCRASQTISNNLHWYQQKPGKAPKLLIYSASLAISGVPSRFSGSGSGTDFTLTISSLQPEDFATYYCQQSNSWPNTFGGGTKVEIK

>  <measuredQuantity>
IC50

>  <result>
16.3

$$$$
